The origin of these recorded values is patent US10123995B2.

Consider compounds characterized by their pIC50 with UniProtKB P03951.
// returns pIC50 (minus log10 of molar concentration), number only

See these solved cases before continuing.
COC(=O)Nc1ccc(C(=O)NC2CCc3cc(-c4cc(Cl)ccc4-n4cnnn4)c[n+]([O-])c32)cc1 (stereo not shown) :: 6.05
O=C(O)c1ccc(NC(=O)C2(O)CC(O)c3cc(-c4cc(Cl)ccc4-n4cnnn4)c[n+]([O-])c32)cc1 (single isomer, unassigned) [Example 9] :: 8.54
O=C(O)c1ccc(NC(=O)C2(O)CC(O)c3cc(-c4cc(Cl)ccc4-n4cnnn4)c[n+]([O-])c32)cc1 (single isomer, unassigned) [Example 11] :: 6.98

q: Returns the measured pIC50 for the input compound. Input: O=C(O)c1ccc(NC(=O)C2(O)CC(O)c3cc(-c4cc(Cl)ccc4-n4cnnn4)c[n+]([O-])c32)cc1 (stereo not shown) [Example 8]
a: 8.38

###

TARGET: purified Human plasma kallikrein (Homo sapiens (Human))
Sequence (P03952 391-638): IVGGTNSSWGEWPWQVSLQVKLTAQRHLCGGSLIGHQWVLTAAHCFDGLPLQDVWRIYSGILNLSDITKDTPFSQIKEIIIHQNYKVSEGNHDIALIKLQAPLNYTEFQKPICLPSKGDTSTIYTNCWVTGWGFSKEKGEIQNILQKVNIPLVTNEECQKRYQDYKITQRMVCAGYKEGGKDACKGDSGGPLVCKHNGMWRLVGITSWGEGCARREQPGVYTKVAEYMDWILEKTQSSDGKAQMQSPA
Sequence (P03952 20-390 partner): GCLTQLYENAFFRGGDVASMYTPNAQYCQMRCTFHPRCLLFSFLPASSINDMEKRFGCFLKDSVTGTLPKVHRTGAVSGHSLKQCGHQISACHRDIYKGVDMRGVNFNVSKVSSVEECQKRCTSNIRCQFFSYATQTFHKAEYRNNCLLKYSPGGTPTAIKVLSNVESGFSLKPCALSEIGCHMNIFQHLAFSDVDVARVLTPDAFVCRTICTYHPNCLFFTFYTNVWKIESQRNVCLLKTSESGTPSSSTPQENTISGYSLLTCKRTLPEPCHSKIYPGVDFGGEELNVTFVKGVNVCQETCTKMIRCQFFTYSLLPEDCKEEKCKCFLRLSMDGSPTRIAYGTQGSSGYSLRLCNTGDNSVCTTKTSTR
EXPERIMENT NOTES: Kallikrein Assay
RUN CONDITIONS: table titled Kalikrein inhibition (column head prints hFXIa), substrate Acetyl-K-P-R-AFC, pH 7.4
RECORDED METRIC: pIC50
Entry type: numeric. Quantity: pIC50, the -log10 of concentration in molar units.

Please review the entries below; each comes with its answer.
O=C(O)c1ccc(NC(=O)C2(O)CC(O)c3cc(-c4cc(Cl)ccc4-n4cnnn4)c[n+]([O-])c32)cc1 (single isomer, unassigned) [Example 10] :: 6.28
O=C(O)c1ccc(NC(=O)C2(F)CC(F)c3cc(-c4cc(Cl)ccc4-n4cnnn4)c[n+]([O-])c32)cc1 (single isomer, unassigned) [Example 15] :: 5.31
O=C(O)c1ccc(NC(=O)C2(O)CC(O)c3cc(-c4cc(Cl)ccc4-n4cnnn4)c[n+]([O-])c32)cc1 (single isomer, unassigned) [Example 9] :: 6.34

Please look at the following compound next.
q: Looking for the measured pIC50 of O=C(O)c1ccc(NC(=O)C2CC(O)c3cc(-c4cc(Cl)ccc4-n4cnnn4)c[n+]([O-])c32)cc1 (single isomer, unassigned) [Example 5] , can you help?
a: 6.30

###

TARGET: purified Human plasma kallikrein (Homo sapiens (Human))
EXPERIMENT NOTES: Kallikrein Assay
RUN CONDITIONS: table titled Kalikrein inhibition (column head prints hFXIa), substrate Acetyl-K-P-R-AFC, pH 7.4
Labelling: IC50 reported below 1000 nM becomes class 1; at or above becomes class 0.

O=C(O)c1ccc(NC(=O)C2(O)CC(F)c3cc(-c4cc(Cl)ccc4-n4cnnn4)c[n+]([O-])c32)cc1 (single isomer, unassigned) :: class 1
O=C(O)c1ccc(NC(=O)C2(O)CCc3cc(-c4cc(Cl)ccc4-n4cnnn4)c[n+]([O-])c32)cc1 (stereo not drawn) :: class 0
O=C(O)c1ccc(NC(=O)C2CC(O)c3cc(-c4cc(Cl)ccc4-n4cnnn4)c[n+]([O-])c32)cc1 (single isomer, unassigned) [Example 7] :: class 0
O=C(O)c1ccc(NC(=O)C2CCc3cc(-c4cc(Cl)ccc4-n4cnnn4)c[n+]([O-])c32)cc1 (stereo not drawn) :: class 1
O=C(O)c1ccc(NC(=O)C2(O)CC(O)c3cc(-c4cc(Cl)ccc4-n4cnnn4)c[n+]([O-])c32)cc1 (stereo not drawn) [Example 8] :: class 1

Now take the following molecule into account.
q: Strictly below 1000 nM: is that where IC50 of O=C(O)c1ccc(NC(=O)C2CC(O)c3cc(-c4cc(Cl)ccc4-n4cnnn4)c[n+]([O-])c32)cc1 (racemic) [Example 6] sits?
a: class 1

###

TARGET: purified human Factor XIa (Homo sapiens (Human), UniProt P03951)
Sequence (P03951 388-625): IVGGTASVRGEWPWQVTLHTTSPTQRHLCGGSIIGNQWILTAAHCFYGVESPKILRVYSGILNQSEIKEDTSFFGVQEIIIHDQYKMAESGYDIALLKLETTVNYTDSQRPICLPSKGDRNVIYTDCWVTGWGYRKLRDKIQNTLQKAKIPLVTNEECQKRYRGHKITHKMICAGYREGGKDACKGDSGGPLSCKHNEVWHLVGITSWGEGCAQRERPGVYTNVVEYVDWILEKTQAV
Sequence (P03951 19-387 partner): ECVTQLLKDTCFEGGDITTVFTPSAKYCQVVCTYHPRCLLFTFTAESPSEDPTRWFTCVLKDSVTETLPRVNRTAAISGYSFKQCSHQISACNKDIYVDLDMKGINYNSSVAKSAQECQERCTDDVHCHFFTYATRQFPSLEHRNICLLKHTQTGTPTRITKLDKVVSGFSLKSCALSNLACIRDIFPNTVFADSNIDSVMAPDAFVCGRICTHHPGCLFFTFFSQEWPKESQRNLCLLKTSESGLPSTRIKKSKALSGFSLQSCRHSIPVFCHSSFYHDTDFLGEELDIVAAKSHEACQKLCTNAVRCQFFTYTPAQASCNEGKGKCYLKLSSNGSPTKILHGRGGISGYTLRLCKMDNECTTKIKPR
pIC50: −log10 of the molar value.
Decide using pIC50: a value greater than or equal to 7 is condition met, a smaller one is condition not met.

O=C(O)c1ccc(NC(=O)C2CC(O)c3cc(-c4cc(Cl)ccc4-n4cnnn4)c[n+]([O-])c32)cc1 (racemic) [Example 6] :: condition met
O=C(O)c1ccc(NC(=O)C2(O)CC(F)c3cc(-c4cc(Cl)ccc4-n4cnnn4)c[n+]([O-])c32)cc1 (single isomer, unassigned) [Example 14] :: condition not met
O=C(O)c1ccc(NC(=O)C2(F)CC(F)c3cc(-c4cc(Cl)ccc4-n4cnnn4)c[n+]([O-])c32)cc1 (single isomer, unassigned) [Example 18] :: condition not met
O=C(O)c1ccc(NC(=O)C2(O)CCc3cc(-c4cc(Cl)ccc4-n4cnnn4)c[n+]([O-])c32)cc1 (stereo not drawn) [Example 19] :: condition met
O=C(O)c1ccc(NC(=O)C2(O)CC(O)c3cc(-c4cc(Cl)ccc4-n4cnnn4)c[n+]([O-])c32)cc1 (single isomer, unassigned) [Example 12] :: condition not met
O=C(O)c1ccc(NC(=O)C2(CC3CC3)CCc3cc(-c4cc(Cl)ccc4-n4cnnn4)c[n+]([O-])c32)cc1 (single isomer, unassigned) [Example 22] :: condition not met
O=C(O)c1ccc(NC(=O)C2(O)CC(O)c3cc(-c4cc(Cl)ccc4-n4cnnn4)c[n+]([O-])c32)cc1 (single isomer, unassigned) [Example 10] :: condition met
O=C(O)c1ccc(NC(=O)C2CC(O)c3cc(-c4cc(Cl)ccc4-n4cnnn4)c[n+]([O-])c32)cc1 (single isomer, unassigned) [Example 7] :: condition met
O=C(O)c1ccc(NC(=O)C2CC(O)c3cc(-c4cc(Cl)ccc4-n4cnnn4)c[n+]([O-])c32)cc1 (single isomer, unassigned) [Example 5] :: condition met
O=C(O)c1ccc(NC(=O)C2(O)CC(F)c3cc(-c4cc(Cl)ccc4-n4cnnn4)c[n+]([O-])c32)cc1 (single isomer, unassigned) [Example 13] :: condition met

q: Is reported pIC50 greater than or equal to 7 here: O=C(O)c1ccc(NC(=O)[C@H]2CCc3cc(-c4c(F)ccc(Cl)c4F)c[n+]([O-])c32)cc1 [Example 3]
a: condition not met

q: Thanks! And O=C(O)c1ccc(NC(=O)C2CCc3cc(-c4cc(Cl)ccc4-n4cnnn4)c[n+]([O-])c32)cc1 (stereo not drawn) [Example 1] ?
a: condition met
